Data provenance: patent US11306092B2

Biological target: human TLR7 (Homo sapiens)
Sequence (Q9NYK1 27-1049): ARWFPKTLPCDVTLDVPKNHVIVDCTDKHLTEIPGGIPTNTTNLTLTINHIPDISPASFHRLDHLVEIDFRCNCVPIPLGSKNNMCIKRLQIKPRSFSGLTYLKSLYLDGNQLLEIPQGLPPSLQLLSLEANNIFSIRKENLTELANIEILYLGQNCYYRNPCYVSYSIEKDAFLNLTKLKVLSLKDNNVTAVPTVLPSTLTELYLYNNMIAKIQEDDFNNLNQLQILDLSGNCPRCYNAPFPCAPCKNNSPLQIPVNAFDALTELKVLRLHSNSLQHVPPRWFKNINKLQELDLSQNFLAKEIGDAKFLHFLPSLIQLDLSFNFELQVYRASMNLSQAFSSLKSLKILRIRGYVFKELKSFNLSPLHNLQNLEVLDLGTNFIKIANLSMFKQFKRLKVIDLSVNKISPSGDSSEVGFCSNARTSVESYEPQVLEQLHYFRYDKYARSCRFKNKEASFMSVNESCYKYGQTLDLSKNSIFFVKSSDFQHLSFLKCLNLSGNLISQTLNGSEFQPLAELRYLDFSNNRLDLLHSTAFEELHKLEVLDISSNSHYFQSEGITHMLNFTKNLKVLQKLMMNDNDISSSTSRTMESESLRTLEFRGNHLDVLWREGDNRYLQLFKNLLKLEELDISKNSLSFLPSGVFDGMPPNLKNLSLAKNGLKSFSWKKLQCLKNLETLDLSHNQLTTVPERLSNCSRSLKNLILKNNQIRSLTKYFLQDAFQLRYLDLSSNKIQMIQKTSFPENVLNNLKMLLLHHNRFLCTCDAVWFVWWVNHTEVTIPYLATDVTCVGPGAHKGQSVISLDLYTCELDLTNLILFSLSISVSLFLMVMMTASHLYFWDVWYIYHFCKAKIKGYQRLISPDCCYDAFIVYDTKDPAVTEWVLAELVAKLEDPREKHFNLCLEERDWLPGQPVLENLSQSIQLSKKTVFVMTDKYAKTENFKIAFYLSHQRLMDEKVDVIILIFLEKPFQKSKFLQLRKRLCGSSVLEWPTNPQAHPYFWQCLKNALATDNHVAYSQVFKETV
Experiment: TLR7 inhibition reporter assay (HEK-Blue SEAP reporter)
Conditions: HEK-Blue cells overexpressing human TLR7; gardiquimod 7.5 μM; 22 hour incubation
Text: TLR7/8/9 Inhibition Reporter Assays HEK-Blue™-cells (Invivogen) overexpressing human TLR7, TLR8 or TLR9 receptors were used for screening inhibitors of these receptors using an inducible SEAP (secreted embryonic alkaline phosphatase) reporter gene under the control of the IFN-β minimal promoter fused to five NF-κB and AP-1-binding sites. […]
Flag rule - IC50 less than 80 nM flags condition met; the remaining entries get condition not met.

These recorded examples may help you get a feel for the data.
CNC1(CC#N)CCN(c2ccc3[nH]c(-c4ccc(OC)c(OC)c4)c(C(C)C)c3c2)CC1
condition met
CNCCNC1CCN(c2ccc3[nH]c(-c4ccnc(C)c4)c(C(C)C)c3c2)C1=O (centres unmarked)
condition not met
CCc1c(-c2ccnc(OC)c2)[nH]c2ccc(N3CCN(C4CCN(C)CC4)CC3)cc12
condition met
COc1ccc(-c2[nH]c3ccc(NC(=O)CN)cc3c2C(C)C)cc1OC
condition not met
COc1ccc(-c2[nH]c3ccc(NC4CCC(N(C)CCN(C)C)CC4)cc3c2C(C)C)cc1OC (centres unmarked)
condition not met
COc1ccc(-c2[nH]c3ccc(N4CCC(N(C)C)C4=O)cc3c2C(C)C)cc1OC (centres unmarked) [Example 3]
condition met

IC50 strictly < 80 nM for this compound? COc1ccc(-c2[nH]c3ccc(N4CCC(N5CCCNCC5)CC4)cc3c2C(C)C)cc1OC
condition met
